target: human EGFR (huEGFR) over-expressed on mcl-1-/- mouse embryonic fibroblasts (human, UniProt P00533 25-1210); test: cell-based or functional assay
Quick reference: huEGFR+ mcl-1-/- MEF EC50 of the listed items.
Numbers only; they are read as nM.

AbB-CZ (antibody, human IgG1, kappa, V domains shown, synthon CZ on reduced interchain cysteines; average DAR 3.5 per ADC) VH: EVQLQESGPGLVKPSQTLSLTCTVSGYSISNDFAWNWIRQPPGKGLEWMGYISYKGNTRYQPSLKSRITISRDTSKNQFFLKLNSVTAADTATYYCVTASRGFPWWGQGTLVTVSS VL: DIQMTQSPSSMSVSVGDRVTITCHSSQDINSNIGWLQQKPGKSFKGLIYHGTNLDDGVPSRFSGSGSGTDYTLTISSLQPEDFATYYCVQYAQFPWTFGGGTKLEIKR ... 5.9
AbB-SR (antibody, human IgG1, kappa, V domains shown, synthon SR on reduced interchain cysteines; average DAR 2.1 per ADC) VH: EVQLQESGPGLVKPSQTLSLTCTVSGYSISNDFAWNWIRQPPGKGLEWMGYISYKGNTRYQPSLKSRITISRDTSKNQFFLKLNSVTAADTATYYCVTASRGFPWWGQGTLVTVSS VL: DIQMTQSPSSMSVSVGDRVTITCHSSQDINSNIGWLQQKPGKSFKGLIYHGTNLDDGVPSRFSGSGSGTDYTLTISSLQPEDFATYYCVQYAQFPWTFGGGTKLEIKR ... 7

Let us move to another entry and its huEGFR+ mcl-1-/- MEF EC50.
Per the record, AbB-TX (antibody, human IgG1, kappa, V domains shown, synthon TX on reduced interchain cysteines; average DAR 2.2 per ADC) VH: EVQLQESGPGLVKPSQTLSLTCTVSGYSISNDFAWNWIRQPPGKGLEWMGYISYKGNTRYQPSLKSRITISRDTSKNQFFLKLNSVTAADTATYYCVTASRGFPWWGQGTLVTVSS VL: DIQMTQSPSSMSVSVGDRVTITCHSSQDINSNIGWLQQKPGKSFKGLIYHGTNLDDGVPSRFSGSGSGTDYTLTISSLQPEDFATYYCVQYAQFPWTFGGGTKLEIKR has huEGFR+ mcl-1-/- MEF EC50 of 11
